The measurements presented in this section are drawn from PubChem BioAssay (EPA / NIEHS).

test: APR_HepG2_p53Act_24hr: Apredica 24-hour HepG2 Assay for p53 Activation (AID 2282913); conditions: high-content imaging, actives raise or lower the signal;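 also: p53 protein immunofluorescence averaged per cell in HepG2 with Hoechst nuclei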
Activity calls are given as the source filed them. The calls were made as follows: active = hit-call score of the fitted dose curve at least 0.9, where 1 is the maximum; inactive = score below 0.9.
I would appreciate it if you answered using one of these outcomes: active, inactive

Inquiry: Any idea what this test logged for C[C@](N)(Cc1ccc(O)c(O)c1)C(=O)O ?
Reply text: inactive

Inquiry: What about O=C1CCCCCN1 ?
Reply text: inactive

Inquiry: Entry to check: CC(O)CN(CCN(CC(C)O)CC(C)O)CC(C)O (stereo not drawn)
Reply text: inactive

Inquiry: Same question, CCN(C(=O)c1cc(C)cc(OC[C@H](C)Nc2ccncc2)c1)C(C)C this time
Reply text: inactive

Inquiry: Would you kindly repeat that for CCc1cc(SCc2sc(-c3ccc(C(F)(F)F)cc3)nc2CN2CCN(c3ccc(OC)cc3)CC2)ccc1OCC(=O)O ?
Reply text: active

Inquiry: Please answer likewise for CCCCCCCCCCCCc1ccccc1
Reply text: inactive

Inquiry: Now this one: CC(C)c1cccc(C(C)C)c1N1C(=O)c2ccc(O)cc2C1=O
Reply text: active

Inquiry: Now the same for O=c1n(CC2CO2)c(=O)n(CC2CO2)c(=O)n1CC1CO1 (stereo not drawn)
Reply text: active

Inquiry: Let us now turn to O=C(NS(=O)(=O)/C=C/c1ccccc1)c1ccc(F)cc1Cl
Reply text: inactive

Inquiry: Now consider C1=CCCC=CCCC=CCC1 .
Reply text: inactive

Inquiry: Would you kindly repeat that for COC(=O)c1ccccc1O ?
Reply text: inactive

Inquiry: Quick one: Cc1ccc(O)cc1
Reply text: inactive

Inquiry: Next: On1ccccc1=S
Reply text: active
